Kd values recorded for CBM71-2 (Streptococcus pneumoniae, UniProt Q8DQP4)
Measured Endpoint: Kd (µM)

| Compound | Reported Measurement |
| --- | --- |
| CC(=O)N[C@H]1C(O)O[C@H](CO)[C@@H](O[C@@H]2O[C@H](CO)[C@H](O)[C@H](O)[C@H]2O)[C@@H]1O (some centres unmarked) | 247 |
| OC[C@H]1O[C@@H](O[C@H]2[C@H](O)[C@@H](O)C(O)O[C@@H]2CO)[C@H](O)[C@@H](O)[C@H]1O (some centres unmarked) | 378 |

====

Tested On: BgaA catalytic region (GH2; SpBgaA) (Streptococcus pneumoniae, UniProt A0A0H2UP19)
Construct: N-terminal catalytic region, domains I-V (GH2 region printed as residues 138-993; SpBgaA146-990 in cell assay); pET28-based expression in E. coli
Test Summary: isothermal titration calorimetry
pKd: −log10 of the molar value.
Measured Endpoint: pKd

| Structure Smiles String | Reported Measurement |
| --- | --- |
| OC[C@H]1CNC[C@@H](O)[C@H]1O | 7.59 |

====

Kd values recorded for CBM71-1 (Streptococcus pneumoniae, UniProt Q8DQP4)

| Compound | Tested On | Value Unit | Kd |
| --- | --- | --- | --- |
| OC[C@H]1O[C@@H](O[C@H]2[C@H](O)[C@@H](O)C(O)O[C@@H]2CO)[C@H](O)[C@@H](O)[C@H]1O (some centres unmarked) | CBM71-1 (Streptococcus pneumoniae, UniProt Q8DQP4) | µM | 368 |
| CC(=O)N[C@H]1C(O)O[C@H](CO)[C@@H](O[C@@H]2O[C@H](CO)[C@H](O)[C@H](O)[C@H]2O)[C@@H]1O (some centres unmarked) | CBM71-1 (Streptococcus pneumoniae, UniProt Q8DQP4) | µM | 251 |
